Where these numbers come from: PubChem BioAssay (NCATS)

- testedTarget: Cytochrome P450 2C19 (Homo sapiens) (UniProt P33261)
- Sequence (P33261 whole entry, looked up): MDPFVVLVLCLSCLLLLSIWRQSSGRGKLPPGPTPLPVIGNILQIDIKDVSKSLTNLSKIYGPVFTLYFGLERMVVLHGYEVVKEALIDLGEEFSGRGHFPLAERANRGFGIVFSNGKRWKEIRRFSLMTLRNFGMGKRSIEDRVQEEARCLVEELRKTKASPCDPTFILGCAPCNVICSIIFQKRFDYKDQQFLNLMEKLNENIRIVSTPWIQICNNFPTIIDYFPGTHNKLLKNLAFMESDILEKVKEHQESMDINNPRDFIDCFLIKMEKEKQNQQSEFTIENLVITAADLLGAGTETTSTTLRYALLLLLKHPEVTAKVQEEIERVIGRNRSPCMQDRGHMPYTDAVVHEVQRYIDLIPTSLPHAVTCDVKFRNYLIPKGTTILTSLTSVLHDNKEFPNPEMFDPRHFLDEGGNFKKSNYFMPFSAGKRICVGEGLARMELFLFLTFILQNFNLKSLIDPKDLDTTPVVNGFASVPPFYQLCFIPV
- assayProtocol: qHTS Assay for Inhibitors and Substrates of Cytochrome P450 2C19 (AID 899); note: nearly all actives have a fitted effect of over 60% in size
- recordedConditions: recombinant CYP2C19, luciferin-H EGE luminescence; series mostly up to 57.1 µM
Inconclusive results are not listed. Active and inactive are the calls of the source. Calls come from the whole dose curve; as a rule, active = well fitted inhibition curve with a large enough effect; inconclusive = small, poorly fitted or top-dose-only effect; inactive = no such curve, though single readings can be large or run the other way.
# output must be one of true for active, false for inactive

>>> cat("CC(C)[C@@H](CC(=O)N[C@@H]1CCNC[C@H]1C(=O)N[C@H](CC(=O)N[C@@H](CCC(=O)O)CC(=O)O)Cc1c[nH]c2ccccc12)NC(=O)C[C@H](CO)NC(=O)[C@@H]1CNCC[C@H]1N")
"false"
>>> cat("C=C1CC[C@@H](O)C/C1=C/C=C1\\CCC[C@]2(C)[C@@H]1CC[C@H]2[C@@H](C)CCCC(C)C")
"false"
>>> cat("COC(=O)[C@@]1(Cc2ccccc2)[C@H]2c3cc(C(=O)N4CCCC4)n(Cc4ccsc4Br)c3C[C@H]2CN1C(=O)c1ccccc1")
"true"
>>> cat("CCCC[C@@H]1C[C@H]1C(NC(=O)c1ccco1)c1ccc(Cl)cc1 (some centres undefined)")
"true"

Could you kindly confirm the outcome this assay logged for `COc1ccc(-c2coc3ccc(O[C@@H]4O[C@@H](COC(C)=O)[C@@H](OC(C)=O)[C@@H](OC(C)=O)[C@H]4OC(C)=O)cc3c2=O)cc1` ?
false

I would be grateful if you could indicate the recorded call for `OC[C@@H]1O[C@@H](n2cnc3c(NCc4ccco4)ncnc32)[C@H](O)[C@H]1O` .
false

# outcome recorded in this test, key = `CC(C)C[C@@H](CC(=O)N[C@@H](CCCN)CC(=O)N[C@@H]1CCCC[C@H]1C(=O)N[C@H](CC(=O)N[C@@H](CCC(=O)O)CC(=O)O)Cc1ccccc1)NC(=O)[C@@H]1CNCC[C@H]1N`
false

====

activity change, negative = inhibition overview
- assayProtocol: NFAT Signaling Pathway (AID 444);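 note: carbachol stimulus at about its EC50 of 1 µM final; % is set by controls: 0 for no effect and ±100 for the full control effect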
- recordedConditions: Jurkat NFAT-bla M1, carbachol, beta-lactamase ratio, 5 h; at 17.2 µM (top of the series) unless noted
Records with an inconclusive call do not appear.
Answer format: numeric, % implied, no suffix.

Example entries and their recorded answers appear below.
>>> reportedresult("Cc1nnc2n(C3CCCCC3)c(=O)c3c4c(sc3n12)COC(C)(C)C4")
5.64
>>> reportedresult("Cc1cc(C)c2c(N)c(C(=O)c3ccccc3)oc2n1")
3.96
>>> reportedresult("CC(=O)Nc1n[nH]c(S(=O)(=O)Cc2ccc(Cl)cc2Cl)n1")
4.1
>>> reportedresult("CCN1CCCC1Cn1cnc2c([nH]c3ccc(C)cc32)c1=O (stereo not given)")
8.74

Item: `O=C(CN1C(=O)c2ccccc2C1=O)NCc1ccccn1` | activity change, negative = inhibition: 16.6

====

- System: CP305
- assayProtocol: qHTS profiling for inhibitors of Plasmodium falciparum proliferation (AID 504749); note: nearly all actives have a fitted effect of over 60% in size
- recordedConditions: P. falciparum in erythrocytes, SYBR Green DNA, 72 h; series mostly up to 28.7 µM
Results filed as inconclusive are left out. Calls of active or inactive are those of the source. Calls come from the whole dose curve; as a rule, active = well fitted inhibition curve with a large enough effect; inconclusive = small, poorly fitted or top-dose-only effect; inactive = flat fitted curve, though single readings scatter.
Use one of these outcomes when replying: active, inactive

Status in this test for `CC(C)C[C@@H](NC(=O)[C@@H](Cc1ccccc1)NC(=O)c1cnccn1)B(O)O` ?
active

For `CN[C@H](C)CCC=C(C)C` , what call appears in the results of this test?
active

I'd appreciate the recorded outcome for NC[C@@H]1O[C@H](OC2[C@@H](CO)O[C@@H](OC3[C@H](O)[C@H](N)C[C@H](N)[C@H]3OC3O[C@H](CO)[C@@H](O)[C@H](O)[C@@H]3N)[C@H]2O)C(N)[C@H](O)[C@@H]1O (stereo partly drawn) from this test.
inactive

====

- assayProtocol: NFAT Signaling Pathway (AID 444);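 note: carbachol stimulus at about its EC50 of 1 µM final; % is set by controls: 0 for no effect and ±100 for the full control effect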
- recordedConditions: Jurkat NFAT-bla M1, carbachol, beta-lactamase ratio, 5 h; at 17.2 µM (top of the series) unless noted
Records with an inconclusive call do not appear.
endpoint: activity change, negative = inhibition (%)
Please respond with the number in % and leave the unit unwritten.

Look over these answered cases.
>>> reportedresult("CCOC(=O)C1Cc2c([nH]c3ccccc23)C(C)N1 (stereo not drawn)")
2.1
>>> reportedresult("COC(=O)C(C)Sc1nc2c(c(=O)n(C)c(=O)n2C)n1CCC(C)C (stereo not drawn)")
7.85
>>> reportedresult("COc1ccc2[nH]c(C)c(C(=O)CN3CCc4cc(OC)c(OC)cc4C3)c2c1")
1.37
>>> reportedresult("Cc1cc(C)c2nc(SCCC#N)nc(C)c2c1")
11.8
>>> reportedresult("Cc1cc(C)c(C#N)c(SCC(=O)N2CCN(Cc3ccccc3)CC2)n1")
-24.4

activity change, negative = inhibition for Oc1ccc2c(c1)C1CCCC1(N1CCOCC1)O2 (stereo not drawn) is 16.1

// activity change, negative = inhibition value for `CCC[C@H]1C[C@H](C(=O)N[C@@H]([C@H]2O[C@@H](SC)[C@@H](O)[C@@H](O)[C@@H]2O)[C@H](C)Cl)N(C)C1` : 0.269

activity change, negative = inhibition reported for this compound `CCCCn1c(-c2ccc(Cl)cc2)nc2c(=O)n(C)c(=O)[nH]c21` : -14.1

====

- System: CP215
- assayProtocol: qHTS profiling for inhibitors of Plasmodium falciparum proliferation (AID 504749); note: nearly all actives have a fitted effect of over 60% in size; note: potency is the fitted concentration of half-maximal effect
- recordedConditions: P. falciparum in erythrocytes, SYBR Green DNA, 72 h; series mostly up to 28.7 µM
Results filed as inconclusive are left out. Active and inactive are the calls of the source. Calls follow the shape of the dose curve; as a rule, active = well fitted inhibition curve with a large enough effect; inconclusive = small, poorly fitted or top-dose-only effect; inactive = flat fitted curve, though single readings scatter.
endpoint: Potency

>>> reportedresult("CCCCC(=O)OCC(=O)[C@]1(O)Cc2c(O)c3c(c(O)c2[C@H](OC2CC(NC(=O)C(F)(F)F)C(O)C(C)O2)C1)C(=O)c1c(OC)cccc1C3=O (stereo not given in full)")
"4.78 µM (active)"
>>> reportedresult("CCCC(=O)Nc1c(I)cc(I)c(C[C@H](CC)C(=O)O)c1I")
"inactive"
>>> reportedresult("CO/N=C(/C(=O)N[C@@H]1C(=O)N2C(C(=O)O)=C(CSc3nnnn3C)CS[C@H]12)c1csc(N)n1")
"inactive"
>>> reportedresult("CCOC(=O)C(CCc1ccccc1)NC(C)C(=O)N1Cc2cc(OC)c(OC)cc2CC1C(=O)O (stereo not given)")
"inactive"

Shifting focus to the molecule that follows.
Quick note, Potency for `O=C(O)c1ccc(N[C@@H]2OC[C@@H](O)[C@@H](O)[C@@H]2O)cc1` landed at inactive

====

- System: CP315
- assayProtocol: qHTS profiling for inhibitors of Plasmodium falciparum proliferation (AID 504749); note: nearly all actives have a fitted effect of over 60% in size
- recordedConditions: P. falciparum in erythrocytes, SYBR Green DNA, 72 h; series mostly up to 28.7 µM
Results filed as inconclusive are left out. The source made the active and inactive calls. The call rests on the fitted dose curve; in most records, active means well fitted inhibition curve with a large enough effect; inconclusive means small, poorly fitted or top-dose-only effect; inactive means flat fitted curve, though single readings scatter.
Pick from class 1 for active, class 0 for inactive when you respond.

Field: example entries. Status: answers known.
>>> cat("CN1[C@@H]2CC[C@@H]1CC(OC(=O)[C@H](CO)c1ccccc1)C2 (stereo partly drawn)")
"class 0"
>>> cat("C=CCN1CC(C(=O)N(CCCN(C)C)C(=O)NCC)CC2c3cccc4[nH]cc(c34)CC21 (stereo not drawn)")
"class 0"
>>> cat("CC1(C)C2CC[C@]1(C)[C@@H](O)C2")
"class 0"

Tell me the assay call for CC1(C)CC1C(=O)N/C(=C/CCCCSCC(N)C(=O)O)C(=O)O (stereo not drawn) please.
class 0

Just curious, what result did O=c1[nH]c(=O)n(C2C[C@H](O)[C@@H](CO)O2)cc1C(F)(F)F (stereo partly drawn) get here?
class 0

Record lookup: outcome of this test for CCCCCCCCCCCC(=O)OCC(O)C1OCC(O)C1O (stereo not drawn) ?
class 0

Please indicate how the test categorized COc1cccc2c1C(=O)c1c(O)c3c(c(O)c1C2=O)C[C@@](O)(C(=O)CO)C[C@@H]3OC1CC(N)C(O)C(C)O1 (stereo partly drawn) .
class 1

For this compound, state the assay outcome: CC1CN(c2c(F)c(N)c3c(=O)c(C(=O)O)cn(C4CC4)c3c2F)CC(C)N1 (stereo not drawn)
class 0

Could you check what this test reported for NC(C(=O)O)C(O)c1ccc(O)c(O)c1 (stereo not drawn) ?
class 0

# outcome recorded in this test, key = CC1(C)SC2C(NC(=O)C(C(=O)O)c3ccccc3)C(=O)N2C1C(=O)O (stereo not drawn)
class 0

Assay outcome for CC(=O)NC1[C@H](O)C[C@@](O)(C(=O)O)O[C@H]1[C@H](O)[C@H](O)CO (stereo partly drawn) : what was it?
class 0

Any idea what this test logged for NC(CSSCC(N)C(=O)O)C(=O)O (stereo not drawn) ?
class 0

Please indicate how the test categorized `O=C(O)Cc1sc(-c2ccc(Cl)cc2)nc1-c1ccccc1` .
class 0

For this compound, state the assay outcome: CC(=O)OCC(=O)[C@@]1(O)CCC2C3C[C@H](C)C4=CC(=O)C=CC4(C)C3C(O)CC21C (stereo partly drawn)
class 0

Field: outcome | Entry: `Cc1ccc(Nc2ncccc2C(=O)O)cc1C`
class 0

// param item: CC1OC(OC2CCC3(C)C(CCC4C3CC(O)C3(C)C(C5=CC(=O)OC5)CCC43O)C2)CC(O)C1OC1CC(O)C(OC2CC(O)C(OC3OC(CO)C(O)C(O)C3O)C(C)O2)C(C)O1 (stereo not drawn) ; yields the recorded call
class 0

Dear all, I need the recorded test outcome for CC1(C)SC2[C@@H](N=CN3CCCCCC3)C(=O)N2[C@H]1C(=O)O (stereo partly drawn) , thank you.
class 0

Hey, what did the test say about `CC(C)C[C@@H](NC(=O)[C@@H](Cc1ccccc1)NC(=O)c1cnccn1)B(O)O` ?
class 1

How did this test come out for COC(=O)C1C2CC3c4[nH]c5cc(OC)ccc5c4CCN3CC2CC(OC)C1OC (stereo not drawn) ?
class 0

Returns: the outcome recorded for CC(=O)N1CC(O)CC1C(=O)O (stereo not drawn) in this assay.
class 0

Could you please tell me the result logged for CCN1CCN(C(=O)NC(C(=O)NC2C(=O)N3C(C(=O)O)=C(CSc4nnnn4C)CSC23)c2ccc(O)cc2)C(=O)C1=O (stereo not drawn) in this assay?
class 0

# lookup: test call for `O=C(O)C[CH2][Ge](=[O])[O][Ge](=[O])[CH2]CC(=O)O`
class 0

Fill in: this test's call for Cc1cnc(NC(=O)C2C(=O)c3ccccc3S(=O)(=O)N2C)s1 (stereo not drawn) is ___
class 0

For `O=C(O)c1ccc(N[C@@H]2OC[C@@H](O)[C@@H](O)[C@@H]2O)cc1` , which call appears in the assay record?
class 0

Call for entry `CC1=C[C@@H](O)CC(C)(C)[C@@H]1/C=C/C(C)=C/C=C/C(C)=C/C=C/C=C(C)/C=C/C=C(C)/C=C/C1=C(C)C[C@H](O)CC1(C)C` :
class 0

Status in this test for `C=C(NCc1ccccc1)c1ccccc1O` ?
class 0

Query: recorded result category for `NC(=O)OC[C@@H]1[C@H](NC(=O)/C(=N/OCC(=O)O)c2csc(N)n2)C(=O)N1S(=O)(=O)O` in this test
class 0

Would you mind telling me which call this test gave CC1=C(C/C=C(\C)CCCC(C)CCCC(C)CCCC(C)C)C(=O)c2ccccc2C1=O (stereo not drawn) ?
class 0
